Hello, the source for this data is ChEMBL document CHEMBL1201862, in case you need it.

Test system: NCI-H522
Test: NCI tumour cell line growth inhibition, 48 h
Calls of active or inactive are those of the source. Rule as the data show it: active = GI50 up to about 1.1 µM and inactive = higher.
Possible outcomes: active, inactive

Compound: CCCCCCCCCC[C@@H](O)[C@@H]1CC[C@H]([C@H]2CC[C@@H]([C@@H](O)CCCCCCCCCC[C@H]3CC(CC(C)=O)C(=O)O3)O2)O1 (stereo not given in full)
Category: active
--
Compound: OC1c2[nH]c3ccccc3c2CCN2CCCCC12 (stereo not given)
Category: inactive
--
Compound: O=C1C=CC(=O)C(CNc2ccc(C(=O)OC34CC5CC(CC(C5)C3)C4)cc2)=C1Br
Category: active
--
Compound: O=c1nc(N2CCCCC2)sc2[nH]c3ccccc3c12
Category: inactive
--
Compound: O=C(O)CCc1c2ccc(=O)c(O)c-2oc2c(O)c(O)ccc12
Category: inactive

---

System: U-251
Assay: NCI tumour cell line growth inhibition, 48 h
Activity calls are given as the source filed them. No stated cut-off is given here; in the data, active = GI50 up to about 1.1 µM and inactive = higher.
Each entry below lists one item and its recorded GI50 value.

Molecule: C=C1C(=O)OC2CCN3CC=C(COC(=O)C(C)(O)C4(CO4)C1C)C23 (stereo not given)
GI50: > 100 µM (inactive)
--
Molecule: Cc1ccc2c(=O)c(-c3n[nH]c(=S)s3)c[nH]c2n1
GI50: > 100 µM (inactive)
--
Molecule: CCOC(=O)C1(NC(=O)OC(C)(C)C)CCc2[nH]oc(=O)c2C1 (stereo not given)
GI50: > 100 µM (inactive)
--
Molecule: CC1=C(C(=O)NNC(=O)Cc2ccccc2)CC(C(=O)NNC(=O)Cc2ccccc2)=C(C)N1
GI50: > 100 µM (inactive)
--
Molecule: O=C(O)c1ccccc1C1CCCc2c1[nH]c1ccccc21 (stereo not given)
GI50: 81.8 µM (inactive)

---

System: HCT-15

Compound: O=S(=O)(c1ccccc1)n1c(C(O)c2ccncc2)cc2ccccc21 (stereo not given)
System tested: HCT-15
Value modifier: =
GI50 / µM: 33.7

Compound: COC(=O)C1=C(O)C(C(=O)OC)[C@]2(O)[C@H](C(=O)OC)[C@H]1C[C@@H](c1c(Cl)cccc1Cl)[C@H]2C(=O)OC (stereo not given in full)
System tested: HCT-15
Value modifier: =
GI50 / µM: 1.74

Compound: O=[N+]([O-])/C(C(Cl)=C(Cl)Cl)=C1\NCCS1
System tested: HCT-15
Value modifier: =
GI50 / µM: 35.6

Compound: COc1ccc(N(C(=O)Nc2ccc(Cl)c(Cl)c2)C2c3cccn3C(=O)N2c2ccc(Cl)c(Cl)c2)cc1 (stereo not given)
System tested: HCT-15
Value modifier: =
GI50 / µM: 94

Compound: C1COCCN1.CN(C)c1ccc(-c2c(C#N)c(N)nc(S)c2C#N)cc1
System tested: HCT-15
Value modifier: >
GI50 / µM: 100

---

Tested on: UACC-62
Assay: NCI tumour cell line growth inhibition, 48 h
Calls of active or inactive are those of the source. Rule as the data show it: active = GI50 up to about 1.1 µM and inactive = higher.
Possible outcomes: active, inactive

Molecule: O=C(O)c1ccccc1CN1CCCC(C(=O)O)C1 (stereo unspecified)
System tested: UACC-62
Category: inactive
--
Molecule: O=C(O)/C=C/c1ccc2c(c1)CC1(Cc3ccccc3C1)C2
System tested: UACC-62
Category: inactive
--
Molecule: CC(C)(N)CO[C@H]1C[C@H]2CC[C@@]1(C)C2(C)C
System tested: UACC-62
Category: inactive
--
Molecule: C=CCCCCCCCCCOC1C=CC(OC(C)=O)C(COC(C)=O)O1 (stereo unspecified)
System tested: UACC-62
Category: inactive
--
Molecule: COc1ccc(N2C(=O)C3c4[nH]c5ccc(OC)cc5c4C4CCC(C(C)(C)C)CC4C3C2=O)cc1 (stereo unspecified)
System tested: UACC-62
Category: inactive
--
Molecule: O=C(NC(=S)Nc1ccccc1)c1ccc([N+](=O)[O-])cc1
System tested: UACC-62
Category: inactive
--
Molecule: CCCCCCCCCCCCCCCCCCOC(COP(=O)(O)OCC1OC(n2cc(F)c(=O)[nH]c2=O)CC1O)COP(=O)(O)OCC1OC(n2ccc(N)nc2=O)C(O)C1O (stereo unspecified)
System tested: UACC-62
Category: inactive
--
Molecule: Cc1ccc2c(c1)c(=O)c1c(NCCN(C)C)ccc3nnn2c31
System tested: UACC-62
Category: inactive
--
Molecule: CN(C)CCC[N+]1=Nc2cccc3cccc(c23)N1
System tested: UACC-62
Category: inactive
--
Molecule: CC(C)Oc1ccc2c(c1)OCC1Cc3ccccc3OC21 (stereo unspecified)
System tested: UACC-62
Category: inactive
--
Molecule: CCSC1=N/C(=C\c2ccc(N(C)C)cc2)C(Cl)=N1
System tested: UACC-62
Category: inactive
--
Molecule: CC(C)CC(=O)NC(C(=O)NC(C(=O)NC(CC(C)C)C(O)CC(=O)NC(C)C(=O)NC(CC(C)C)C(O)CC(=O)O)C(C)C)C(C)C (stereo unspecified)
System tested: UACC-62
Category: inactive
--
Molecule: C1COCCN1.CN(C)c1ccc(-c2c(C#N)c(N)nc(S)c2C#N)cc1
System tested: UACC-62
Category: inactive
--
Molecule: O=c1[nH]c(=O)n(C2CC(O)C(COP(=O)(O)OC3CC(n4cc(F)c(=O)[nH]c4=O)OC3COP(=O)(O)OC3CC(n4cc(F)c(=O)[nH]c4=O)OC3COP(=O)(O)OC3CC(n4cc(F)c(=O)[nH]c4=O)OC3COP(=O)(O)OC3CC(n4cc(F)c(=O)[nH]c4=O)OC3COP(=O)(O)OC3CC(n4cc(F)c(=O)[nH]c4=O)OC3COP(=O)(O)OC3CC(n4cc(F)c(=O)[nH]c4=O)OC3COP(=O)(O)OC3CC(n4cc(F)c(=O)[nH]c4=O)OC3COP(=O)(O)OC3CC(n4cc(F)c(=O)[nH]c4=O)OC3COP(=O)(O)OC3CC(n4cc(F)c(=O)[nH]c4=O)OC3CO)O2)cc1F (stereo unspecified)
System tested: UACC-62
Category: active
--
Molecule: O=C1C(N2CCN(CCOCCO)CC2)=C(Cl)C(=O)c2ncccc21
System tested: UACC-62
Category: inactive
--
Molecule: N#Cc1c(N)nc(Nc2cccc3ccccc23)c(C#N)c1C#N
System tested: UACC-62
Category: inactive

---

Tested on: A549
Assay: NCI tumour cell line growth inhibition, 48 h
Calls of active or inactive are those of the source. Cut-off read from the data, not from the text of the source: active = GI50 up to about 1.1 µM and inactive = higher.
Labels: class 1 for active, class 0 for inactive

Compound: COC(=O)C(NC(=O)c1ccccc1)C(c1c(O)cc(O)cc1O)P(=O)(OC)OC (stereo unspecified)
Category: class 0
--
Compound: Cc1ccc(N2C(=O)C3c4[nH]c5ccccc5c4C4CCC(C(C)(C)C)CC4C3C2=O)cc1 (stereo unspecified)
Category: class 0
--
Compound: COC(c1ccsc1)C(C#N)(C#N)/N=C/c1ccsc1 (stereo unspecified)
Category: class 0
--
Compound: N#Cc1c(Cl)c2ccccc2n2c1nc1ccccc12
Category: class 0
--
Compound: C/C=C/C(O)P(=O)(OC)OC (stereo unspecified)
Category: class 1
--
Compound: OC(CCN1CCN(CCOC(c2ccccc2)c2ccccc2)CC1)c1ccc(Br)cc1 (stereo unspecified)
Category: class 0
--
Compound: CC(C)(C)OC(=O)NC1CC2(C=C(Br)C(=O)C(Br)=C2)OC1=O (stereo unspecified)
Category: class 0
--
Compound: Cc1cc(NCCCCCCNc2cc(C)nc3cc(N(C)C)ccc23)c2ccc(N(C)C)cc2n1
Category: class 0
--
Compound: O=[N+]([O-])c1c(F)c(F)c2c(c1F)Nc1ccccc1S2
Category: class 0
--
Compound: Cc1nnc2n1N=C(CC(=O)c1ccc(O)cc1O)CN2N
Category: class 0
--
Compound: Nc1ncnc2c1cnn2Cc1ccc(Cl)cc1
Category: class 0

---

GI50 for assorted compounds
Tested on: SF-539
Experiment: NCI tumour cell line growth inhibition, 48 h
Calls of active or inactive are those of the source. Rule as the data show it: active = GI50 up to about 1.1 µM and inactive = higher. Where a SMILES comes first, the peptide text is derived from it. The star is where a group is joined. Boc = CC(C)(C)OC(=O)*; OBn = c1ccc(CO*)cc1

Compound: CC(C)(N)CO[C@H]1C[C@H]2CC[C@@]1(C)C2(C)C
System tested: SF-539
GI50: 22.4 µM (inactive)
--
Compound: COCOc1cc(OC)c(Br)cc1C/C(=N/O)C(=O)OC
System tested: SF-539
GI50: > 100 µM (inactive)
--
Compound: CC(C(N)=O)N(C)C(=O)c1cnc2ccccc2c1 (stereo not given)
System tested: SF-539
GI50: > 100 µM (inactive)
--
Compound: CC(C)(C)C1=CC(=C2C(=O)C(=O)c3ccccc3C2=O)C=C(C(C)(C)C)C1=O
System tested: SF-539
GI50: 82.2 µM (inactive)
--
Compound: CC(C)CC(NC(=O)OC(C)(C)C)C(=O)N1CCCC1C(=O)OCc1ccccc1 (stereo not drawn) (Boc-Leu-Pro-OBn; configuration not given here)
System tested: SF-539
GI50: > 100 µM (inactive)
--
Compound: Cc1c(C(=O)C/C(=N\O)C(=O)Nc2cc(Cl)c(Cl)cc2Cl)[n+]([O-])c2ccccc2[n+]1[O-]
System tested: SF-539
GI50: 14.3 µM (inactive)
--
Compound: CCCC1=C(OC)C(=O)c2c(C)cc(Cl)nc2C1=O
System tested: SF-539
GI50: 7.43 µM (inactive)
--
Compound: CO[C@H](C)[C@](O)(C(=O)OCC1=CCN2CC[C@@H](O)[C@H]12)C(C)C
System tested: SF-539
GI50: > 100 µM (inactive)
--
Compound: CN(CCN1CCCC1)C1CCc2cc(Cl)c(Cl)cc2C1 (stereo not given)
System tested: SF-539
GI50: 16.1 µM (inactive)
--
Compound: O=C(c1c(Cl)cc(Cl)cc1Cl)N(Cc1cccnc1)C(=S)N(Cc1cccnc1)C(=O)c1c(Cl)cc(Cl)cc1Cl
System tested: SF-539
GI50: 11 µM (inactive)
--
Compound: C=C1C[C@@H]2O[C@H]3[C@H]4[C@@H](C[C@@H](C)[C@@H](OC(C)=O)[C@H]42)[C@@H](C)CO[C@@]3(C)[C@H](OC(C)=O)C[C@H]1O
System tested: SF-539
GI50: > 100 µM (inactive)
--
Compound: C/C(=N\NC(=S)N1CCCCC1)c1cccc(C)n1
System tested: SF-539
GI50: < 0.0404 µM (active)
--
Compound: COc1ccc(/C=C2\C(=O)N(C3OC(COC(C)=O)C(OC(C)=O)C(OC(C)=O)C3OC(C)=O)c3ccccc3N=C2N)cc1 (stereo not given)
System tested: SF-539
GI50: 9.06 µM (inactive)
--
Compound: COc1cc(NC(C)CCCN)c2nccc(C)c2c1 (stereo not given)
System tested: SF-539
GI50: 17.5 µM (inactive)
--
Compound: O=c1[nH]c2nccn2c(Cl)c1Br
System tested: SF-539
GI50: > 100 µM (inactive)
--
Compound: N#CC(C#N)=C/C=C/c1c(Cl)cccc1Cl
System tested: SF-539
GI50: 1.28 µM (inactive)
--
Compound: CC1=CC[C@@H](C(C)(C)O)C[C@@H]1O
System tested: SF-539
GI50: > 5000 µM (inactive)
--
Compound: CN(/N=C/C=N/N(C)C1=NCCN1)C1=NCCN1
System tested: SF-539
GI50: > 100 µM (inactive)
--
Compound: COc1ccc(C2[C@@H](Cl)C(=O)N2c2ccc(OC)cc2)cc1 (stereo not given in full)
System tested: SF-539
GI50: 19.8 µM (inactive)
--
Compound: O=C1C=CC(=O)C(CNc2ccc(C(=O)OC34CC5CC(CC(C5)C3)C4)cc2)=C1Br
System tested: SF-539
GI50: 1.59 µM (inactive)
